Source listed as PubChem BioAssay.

Provide the reported inhibition of each item.
assay_remarks: 384-well plate pilot, post-Golgi transport modulator project, inhibition of yeast transport mutant growth (AID 636); note: test concentration not given here
test_settings: absorbance 615 nm, about 18 h, active compounds read high
// units = %; emit number, no label

Task item: What value of measured inhibition is listed for `COc1cc2c(cc1OC)CN(C(=O)COc1ccc(C#N)cc1)CC2` ?
Reply: 0.52

Task item: What value of measured inhibition is listed for CCOc1ccccc1-n1c(SCC(=O)NC(C)CC)nnc1-c1ccoc1C (centres undefined) ?
Reply: -6

Task item: What value of measured inhibition is listed for `COCCn1nnnc1CN1CCC(Cc2ccccc2)CC1` ?
Reply: -3.84

Task item: What value of measured inhibition is listed for `CCOC(=O)c1c(NC(=O)OC)sc2c1CCC2` ?
Reply: 0.65

Task item: What value of measured inhibition is listed for `CCOC(=O)c1cc2ccc(OC)c(OC)c2c(=O)s1` ?
Reply: 0.78

Task item: What value of measured inhibition is listed for `Cc1ccc(NC(=O)c2ccco2)c(NC(=O)CN2C(=O)c3ccccc3C2=O)c1` ?
Reply: -0.41

Task item: What value of measured inhibition is listed for `CC1(C)Cc2noc(N)c2C(C)(C)N1OC(=O)c1cccs1` ?
Reply: -4.08

Task item: What value of measured inhibition is listed for O=C(O)C1CSC2c3ccccc3C(=O)N12 (centres undefined) ?
Reply: -1.04

Task item: What value of measured inhibition is listed for `CCn1c(=N)n(CC(=O)C23CC4CC(CC(C4)C2)C3)c2ccccc21` ?
Reply: -5.27
